method_summary: Metabolic stability, rat liver microsome test
Type: in vitro ADME
measurement_parameters: SD, liver microsomes, pH 7.4, 1 μM compound, 0.5 mg/mL protein, 37° C., read-out: rat liver microsome test t1/2(min)
readout_type: half-life at 1 μM (min)
Use min as the unit, but write only the number.

Q: Input C[C@@H]1CCc2ncc(F)cc2[C@H]2CCCN2c2ccn3ncc(c3n2)C(=O)N1 [Compound Φ-a, reference compound] , output reported half-life at 1 μM.
A: 16.7

Q: Input "[2H]C1([2H])CCN2c3ccn4ncc(c4n3)C(=O)N[C@H](C)CCc3ncc(F)cc3[C@]21[2H]" , output reported half-life at 1 μM.
A: 30.4

Q: Input [2H]C([2H])([2H])C1([2H])CCc2ncc(F)cc2C2CCCN2c2ccn3ncc(c3n2)C(=O)N1 (racemic) , output reported half-life at 1 μM.
A: 39.1

Q: Input "[2H]C1([2H])c2ncc(F)cc2[C@H]2CCCN2c2ccn3ncc(c3n2)C(=O)N[C@H](C)C1([2H])[2H]" , output reported half-life at 1 μM.
A: 31.3

Q: Input C[C@@H]1CCc2ncc(F)cc2C2CCCN2c2ccn3ncc(c3n2)C(=O)N1 (stereo partly drawn) [Compound Φ, reference compound] , output reported half-life at 1 μM.
A: 23.3

Q: Input C[C@@H]1CCc2ncc(F)cc2[C@@H]2CCCN2c2ccn3ncc(c3n2)C(=O)N1 [Φ-b, reference compound] , output reported half-life at 1 μM.
A: 17.5

Q: Input "[2H]C1([2H])c2ncc(F)cc2[C@@H]2CCCN2c2ccn3ncc(c3n2)C(=O)N[C@H](C)C1([2H])[2H]" , output reported half-life at 1 μM.
A: 18.5

Q: Input [2H]C1([2H])c2ncc(F)cc2C2CCCN2c2ccn3ncc(c3n2)C(=O)N[C@H](C)C1([2H])[2H] (stereo partly drawn) , output reported half-life at 1 μM.
A: 59.4

Q: Input "[2H]C1([2H])CCN2c3ccn4ncc(c4n3)C(=O)N[C@H](C)CCc3ncc(F)cc3[C@@]21[2H]" , output reported half-life at 1 μM.
A: 23.9

---

method_summary: Metabolic stability, human liver microsome test
Assay type: in vitro ADME
measurement_parameters: liver microsomes, pH 7.4, 1 μM compound, 0.5 mg/mL protein, 37° C.
Please provide measured microsomal CLint at 1 μM for the entries that follow.

Q: Input "[2H]C1([2H])c2ncc(F)cc2[C@H]2CCCN2c2ccn3ncc(c3n2)C(=O)N[C@H](C)C1([2H])[2H]" , output reported microsomal CLint at 1 μM.
A: 56.5 µL/min/mg

Q: Input "[2H]C1([2H])c2ncc(F)cc2[C@@H]2CCCN2c2ccn3ncc(c3n2)C(=O)N[C@H](C)C1([2H])[2H]" , output reported microsomal CLint at 1 μM.
A: 49.8 µL/min/mg

Q: Input C[C@@H]1CCc2ncc(F)cc2[C@@H]2CCCN2c2ccn3ncc(c3n2)C(=O)N1 [Φ-b, reference compound] , output reported microsomal CLint at 1 μM.
A: 78.4 µL/min/mg

Q: Input "[2H]C1([2H])CCN2c3ccn4ncc(c4n3)C(=O)N[C@H](C)CCc3ncc(F)cc3[C@@]21[2H]" , output reported microsomal CLint at 1 μM.
A: 55.2 µL/min/mg

---

method_summary: Metabolic stability, rat liver microsome test
Assay type: in vitro ADME
measurement_parameters: SD, liver microsomes, pH 7.4, 1 μM compound, 0.5 mg/mL protein, 37° C.
readout_type: microsomal CLint at 1 μM (µL/min/mg)
Use µL/min/mg as the unit, but write only the number.

Q: Input [2H]C([2H])([2H])C1([2H])CCc2ncc(F)cc2C2CCCN2c2ccn3ncc(c3n2)C(=O)N1 (racemic) , output reported microsomal CLint at 1 μM.
A: 35.5

Q: Input "[2H]C1([2H])c2ncc(F)cc2[C@@H]2CCCN2c2ccn3ncc(c3n2)C(=O)N[C@H](C)C1([2H])[2H]" , output reported microsomal CLint at 1 μM.
A: 75.1

Q: Input C[C@@H]1CCc2ncc(F)cc2C2CCCN2c2ccn3ncc(c3n2)C(=O)N1 (stereo partly drawn) [Compound Φ, reference compound] , output reported microsomal CLint at 1 μM.
A: 59.5

Q: Input C[C@@H]1CCc2ncc(F)cc2[C@H]2CCCN2c2ccn3ncc(c3n2)C(=O)N1 [Compound Φ-a, reference compound] , output reported microsomal CLint at 1 μM.
A: 83.2

Q: Input [2H]C1([2H])c2ncc(F)cc2C2CCCN2c2ccn3ncc(c3n2)C(=O)N[C@H](C)C1([2H])[2H] (stereo partly drawn) , output reported microsomal CLint at 1 μM.
A: 23.3

Q: Input "[2H]C1([2H])c2ncc(F)cc2[C@H]2CCCN2c2ccn3ncc(c3n2)C(=O)N[C@H](C)C1([2H])[2H]" , output reported microsomal CLint at 1 μM.
A: 44.2

Q: Input "[2H]C1([2H])CCN2c3ccn4ncc(c4n3)C(=O)N[C@H](C)CCc3ncc(F)cc3[C@@]21[2H]" , output reported microsomal CLint at 1 μM.
A: 57.9

Q: Input "[2H]C1([2H])CCN2c3ccn4ncc(c4n3)C(=O)N[C@H](C)CCc3ncc(F)cc3[C@]21[2H]" , output reported microsomal CLint at 1 μM.
A: 45.6

Q: Input C[C@@H]1CCc2ncc(F)cc2[C@@H]2CCCN2c2ccn3ncc(c3n2)C(=O)N1 [Φ-b, reference compound] , output reported microsomal CLint at 1 μM.
A: 79.2

---

method_summary: Metabolic stability, human liver microsome test
Format: in vitro ADME
measurement_parameters: liver microsomes, pH 7.4, 1 μM compound, 0.5 mg/mL protein, 37° C., read-out: human liver microsome test t1/2(min)
readout_type: half-life at 1 μM (min)
Use min as the unit, but write only the number.

Q: Input [2H]C1([2H])CCN2c3ccn4ncc(c4n3)C(=O)N[C@H](C)CCc3ncc(F)cc3[C@]21[2H] [Compound L-2-a] , output reported half-life at 1 μM.
A: 17.4

Q: Input C[C@@H]1CCc2ncc(F)cc2[C@H]2CCCN2c2ccn3ncc(c3n2)C(=O)N1 [Compound Φ-a, reference compound] , output reported half-life at 1 μM.
A: 12.9

Q: Input C[C@@H]1CCc2ncc(F)cc2[C@@H]2CCCN2c2ccn3ncc(c3n2)C(=O)N1 [Φ-b, reference compound] , output reported half-life at 1 μM.
A: 17.7

Q: Input [2H]C1([2H])CCN2c3ccn4ncc(c4n3)C(=O)N[C@H](C)CCc3ncc(F)cc3[C@@]21[2H] [Compound L-2-b] , output reported half-life at 1 μM.
A: 25.1

Q: Input [2H]C([2H])([2H])C1([2H])CCc2ncc(F)cc2C2CCCN2c2ccn3ncc(c3n2)C(=O)N1 (racemic) [Compound 70] , output reported half-life at 1 μM.
A: 17.6

Q: Input [2H]C1([2H])c2ncc(F)cc2C2CCCN2c2ccn3ncc(c3n2)C(=O)N[C@H](C)C1([2H])[2H] (stereo partly drawn) [Compound 13] , output reported half-life at 1 μM.
A: 36

Q: Input [2H]C1([2H])c2ncc(F)cc2[C@H]2CCCN2c2ccn3ncc(c3n2)C(=O)N[C@H](C)C1([2H])[2H] [Compound L-1-a] , output reported half-life at 1 μM.
A: 24.5

Q: Input C[C@@H]1CCc2ncc(F)cc2C2CCCN2c2ccn3ncc(c3n2)C(=O)N1 (stereo partly drawn) [Compound Φ, reference compound] , output reported half-life at 1 μM.
A: 14.7

Q: Input [2H]C1([2H])c2ncc(F)cc2[C@@H]2CCCN2c2ccn3ncc(c3n2)C(=O)N[C@H](C)C1([2H])[2H] [Compound L-1-b] , output reported half-life at 1 μM.
A: 27.8

---

method_summary: Metabolic stability, human liver microsome test
Assay type: in vitro ADME
measurement_parameters: liver microsomes, pH 7.4, 1 μM compound, 0.5 mg/mL protein, 37° C.
Please provide measured microsomal CLint at 1 μM for the entries that follow.

Q: Input [2H]C1([2H])c2ncc(F)cc2C2CCCN2c2ccn3ncc(c3n2)C(=O)N[C@H](C)C1([2H])[2H] (some centres unmarked) , output reported microsomal CLint at 1 μM.
A: 38.5 µL/min/mg

Q: Input "[2H]C1([2H])CCN2c3ccn4ncc(c4n3)C(=O)N[C@H](C)CCc3ncc(F)cc3[C@]21[2H]" , output reported microsomal CLint at 1 μM.
A: 79.6 µL/min/mg

Q: Input C[C@@H]1CCc2ncc(F)cc2[C@H]2CCCN2c2ccn3ncc(c3n2)C(=O)N1 [Compound Φ-a, reference compound] , output reported microsomal CLint at 1 μM.
A: 108 µL/min/mg

Q: Input C[C@@H]1CCc2ncc(F)cc2C2CCCN2c2ccn3ncc(c3n2)C(=O)N1 (some centres unmarked) [Compound Φ, reference compound] , output reported microsomal CLint at 1 μM.
A: 94.3 µL/min/mg

Q: Input [2H]C([2H])([2H])C1([2H])CCc2ncc(F)cc2C2CCCN2c2ccn3ncc(c3n2)C(=O)N1 (racemic) , output reported microsomal CLint at 1 μM.
A: 78.7 µL/min/mg
